# Test system: 349418-098-R-PDC complex spheroid growth;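 also: spheroids also contain HUVEC endothelial cells and human MSC stroma; spheroids exposed to agents for seven days before luminescence viability read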
# Protocol Notes: Anticancer human tumor 349418-098-R-PDC patient-derived lung adenocarcinoma cell line growth inhibition [AhR]
# Experimental Setup: second compound 1 µM; first compound 0.0316 µM; hits give low values
Classify: y when viability, T/C is strictly less than 90%; n when viability, T/C is not.

1. CC(C)c1c(-c2ccccc2)nc2c(C#N)c[nH]n2c1=O + Cc1cncc(-c2nc(NCCc3c[nH]c4ccccc34)c3ncn(C(C)C)c3n2)c1 : n
2. Nc1ncn(C2CC(O)C(CO)O2)c(=O)n1 (stereo not given) + Cc1cncc(-c2nc(NCCc3c[nH]c4ccccc34)c3ncn(C(C)C)c3n2)c1 : y
3. COc1cc(C2c3cc4c(cc3C(OC3OC5COC(C)OC5C(O)C3O)C3COC(=O)C23)OCO4)cc(OC)c1O (stereo not given) + Cc1cncc(-c2nc(NCCc3c[nH]c4ccccc34)c3ncn(C(C)C)c3n2)c1 : n
4. O=C(C=Cc1cccc(S(=O)(=O)Nc2ccccc2)c1)NO + CC(CO)NC(=O)c1cc(-c2ccc(Cl)cc2)nn(-c2cnn(C)c2)c1=O : n
5. Nc1ccn(C2OC(CO)C(O)C2(F)F)c(=O)n1 (stereo not given) + CC(CO)NC(=O)c1cc(-c2ccc(Cl)cc2)nn(-c2cnn(C)c2)c1=O : y

Moving on to another molecule below.
Does this molecule meet the criterion viability, T/C < 90%? O=C(C=Cc1cccc(S(=O)(=O)Nc2ccccc2)c1)NO + Cc1cncc(-c2nc(NCCc3c[nH]c4ccccc34)c3ncn(C(C)C)c3n2)c1 y
